- System: HCoV (OC43)
- assay overview: In vitro assay for HCoV (OC43), virus yield reduction in Huh7 cells
- Assay type: cell-based
- reported conditions: Betacoronavirus 1, OC43, Huh-7, 10 μM
Recorded inhibition at 10 µM by entry
Report the value in % with no unit label.

# inhibition at 10 µM lookup, item CC(C)C[C@H](NC(=O)[C@H](Cc1cccc2ccccc12)NC(=O)OCc1ccccc1)C(=O)N[C@@H](C[C@@H]1CCCNC1=O)C(O)C(F)(F)F (stereo partly drawn)
95

# inhibition at 10 µM lookup, item CC(C)CC(NC(=O)[C@H](Cc1cccc2ccccc12)NC(=O)OCc1ccccc1)C(=O)N[C@@H](C[C@@H]1CCNC1=O)C1OCCO1 (stereo partly drawn)
99.3

# inhibition at 10 µM lookup, item CC(C)C[C@H](NC(=O)[C@H](Cc1ccc(F)cc1)NC(=O)OCc1ccccc1)C(=O)N[C@H](C=O)C[C@@H]1CCCNC1=O
99.9

# inhibition at 10 µM lookup, item Cc1cc(C(=O)NC(CC(C)C)C(=O)N[C@H](C=O)C[C@@H]2CCCNC2=O)no1 (stereo partly drawn)
99.9

# inhibition at 10 µM lookup, item CCOC(=O)/C=C/[C@H](C[C@@H]1CCCNC1=O)NC(=O)C(CC(C)C)NC(=O)[C@H](Cc1cccc2ccccc12)NC(=O)c1cc(C)on1 (stereo partly drawn)
99.7

# inhibition at 10 µM lookup, item CC(C)C[C@H](NC(=O)[C@H](Cc1cccc2ccccc12)NC(=O)OCc1ccccc1)C(=O)N[C@H](/C=C(\C#N)C(N)=O)C[C@@H]1CCCNC1=O
99.9

# inhibition at 10 µM lookup, item CC(C)C[C@H](NC(=O)[C@H](Cc1cccc2ccccc12)NC(=O)OCc1ccccc1)C(=O)N[C@@H](C[C@@H]1CCCNC1=O)C(=O)C(F)(F)F
99.4

# inhibition at 10 µM lookup, item CC(C)C[C@H](NC(=O)[C@H](Cc1cccc2ccccc12)NC(=O)OCc1ccccc1)C(=O)N[C@@H](C[C@@H]1CCCNC1=O)C(O)S(=O)(=O)O (stereo partly drawn)
99.9

Now, please, on to the next molecule.
# inhibition at 10 µM lookup, item CC(C)C[C@H](NC(=O)[C@H](Cc1cccc2ccccc12)NC(=O)OCc1ccccc1)C(=O)N[C@@H](C[C@@H]1CCCNC1=O)[C@@H](O)C#N
100
